# EXPERIMENTAL_CONDITIONS: buffer; pH 7.4; 200.0 µM
QUANTITY_NAME: solubility kinetic

>  <MOLECULE>
CCC(CC)C(=O)Nc1nnc(SCC(=O)NC(C)(C)C)s1

>  <VALUE_REPORTED>
> 51.7 µg/mL

$$$$
>  <MOLECULE>
O=C(O)Cn1c(-c2ccccc2)cc2ccccc21

>  <VALUE_REPORTED>
25.3 µg/mL

$$$$
>  <MOLECULE>
O=C(CCSc1ccc(Cl)cc1)NCc1ccccn1

>  <VALUE_REPORTED>
40.8 µg/mL

$$$$
>  <MOLECULE>
Cc1ccc2c3c([nH]c2c1)C(=O)CC(C)(C)S3

>  <VALUE_REPORTED>
< 0.5 µg/mL

$$$$
>  <MOLECULE>
CCOC(=O)c1sc(Nc2ccc(OCC)cc2)nc1C

>  <VALUE_REPORTED>
0.9 µg/mL

$$$$
>  <MOLECULE>
C=CCNC(=S)NCc1ccccc1

>  <VALUE_REPORTED>
> 30.9 µg/mL

$$$$
>  <MOLECULE>
CC(c1ccccc1)n1c(Br)nc2c1c(=O)[nH]c(=O)n2C (configuration not stated)

>  <VALUE_REPORTED>
11.2 µg/mL

$$$$
>  <MOLECULE>
CC(OC(=O)c1ccc2c(c1)NC(=O)CS2)C(=O)c1ccc(F)cc1 (configuration not stated)

>  <VALUE_REPORTED>
18.1 µg/mL

$$$$
>  <MOLECULE>
COP(=O)(NC(=O)C(Cl)(Cl)Cl)OC

>  <VALUE_REPORTED>
> 40.6 µg/mL

$$$$
>  <MOLECULE>
CC1(C)C2([N+](=O)[O-])CN3CC1([N+](=O)[O-])CN(C2)C3c1ccccn1 (configuration not stated)

>  <VALUE_REPORTED>
7.9 µg/mL

$$$$
>  <MOLECULE>
CN(c1ccccc1)S(=O)(=O)c1cccc(NC(=O)C2CCCO2)c1 (configuration not stated)

>  <VALUE_REPORTED>
> 54.1 µg/mL

$$$$
>  <MOLECULE>
CC1(C)CC(=O)C2=C(C1)NC(=O)NC2c1ccccc1Cl (configuration not stated)

>  <VALUE_REPORTED>
45.6 µg/mL

$$$$
